# credit: the supplement of paper PMC7125110

Kindly supply the reported self-cleavage kobs at 640 uM GlcN6P values for the records listed here.
B1: glmS ribozyme (parent)
chain: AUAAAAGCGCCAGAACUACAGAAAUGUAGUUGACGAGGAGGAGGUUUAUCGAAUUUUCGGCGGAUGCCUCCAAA

# Variants of: B1
# procedure_text: self-cleavage kobs at 640 uM GlcN6P; higher = faster cleavage; RNA array
# settings: with glucosamine-6-phosphate
This sample holds only a part of the variants without activity.

Sample answers from the record:
alteration: U31G U47C
self-cleavage kobs at 640 uM GlcN6P: 0.000197 s⁻¹
//
alteration: G63A U69G
self-cleavage kobs at 640 uM GlcN6P: 0.000116 s⁻¹
//
alteration: U30G G32C A39G U45C A52U G63A
self-cleavage kobs at 640 uM GlcN6P: < 1e-05 s⁻¹
//
alteration: U30A G38A C50A G66U
self-cleavage kobs at 640 uM GlcN6P: < 1e-05 s⁻¹
//
alteration: G41C A42G
self-cleavage kobs at 640 uM GlcN6P: 6.25e-05 s⁻¹

I'm hoping you can list self-cleavage kobs at 640 uM GlcN6P for every variant here, please.
1. C50G G63A A64U
2. A12G A33G
3. A14C G40U A52U
4. A12U A53G
5. C11U G13C C16A U49A
6. G35C A52G
7. A39G U54A

stdout:
["0.000136 s⁻¹", "< 1e-05 s⁻¹", "< 1e-05 s⁻¹", "0.0163 s⁻¹", "< 1e-05 s⁻¹", "< 1e-05 s⁻¹", "0.00823 s⁻¹"]

I'm hoping you can list self-cleavage kobs at 640 uM GlcN6P for every variant here, please.
1. C16G A36U C50G C68G
2. A39C A42G G60C
3. C16U U57C
4. A6G U57A G60A C71G
5. G43U U69C C70G
6. G29A G43A
7. U56A C67A
8. G41C C61U

stdout:
1. 0.000979 s⁻¹
2. < 1e-05 s⁻¹
3. 5.65e-05 s⁻¹
4. < 1e-05 s⁻¹
5. < 1e-05 s⁻¹
6. < 1e-05 s⁻¹
7. 0.00132 s⁻¹
8. < 1e-05 s⁻¹
